Please provide measured EC50 for the entries that follow.
# System: mutant MDM2 reporter cells, luciferase luminescence enhancement, 2 h
# measurement_description: compounds raising luminescence in mutant MDM2 cells – cell-based, luciferase luminescence, dose response (AID 1442)
The source made the active and inactive calls.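 The calls were made as follows: active = maximum enhancement above 22% with a fitted EC50 greater than zero; inactive = the rest.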

input: Return the recorded EC50 value; entry: Cc1ccc2c(c1)c1ccc3c(c1n2C)C(=O)C=CC3=O
output: 1.83 µM

input: Give EC50 for the following molecule: CC1=NN(c2cccc(C(=O)O)c2)C(=O)/C1=C\C=C/c1ccccc1
output: 92.9 µM

input: For COc1ccc(CS(=O)/C(Cl)=C(/Cl)C(=O)Nc2ccc(OC)nc2)cc1 (stereo not drawn) , write its EC50.
output: 3.41 µM

input: Please give measured EC50 of the following entry: O=C(Cn1ncc(Cl)c(Cl)c1=O)NCC1CCCCC1
output: 2.08 µM

input: Tell me its EC50 given COc1ccc(NC(=O)/C(Cl)=C(/Cl)S(=O)Cc2ccc(Cl)cc2)cn1 (stereo not drawn) as the entry.
output: 0.46 µM

input: # return recorded EC50 for entry Cc1cccc2c1c1ccc3c(c1n2C)C(=O)C=CC3=O
output: 1.43 µM

input: Name the recorded EC50 of the molecule listed here: CCOC(=O)C1=C(c2ccccc2)O/C(=C(/C#N)C(F)(F)F)S1
output: 40.8 µM

input: Provide measured EC50 value, entry: CN(C)C(=S)SSC(=S)N(C)C
output: 0.08 µM

input: In one line, give reported EC50 of the entry COCCNC(=O)/C(C#N)=C/c1cccc(/C=C(\C#N)C(=O)NCCOC)c1 .
output: 0.73 µM

input: Determine from records and report EC50 for CC(C)c1ccc(OCc2cccc(C(=O)N/N=C/c3cccnc3)c2)cc1
output: 200 µM (inactive)

input: Could you please provide reported EC50 for C=CS(=O)(=O)c1ccc(Oc2ccc(S(=O)(=O)C=C)cc2)cc1 ? Thanks!
output: 1.5 µM

input: Quote EC50 reported for Nc1cccc2c1C(=O)N(C(=O)/C=C/c1cccc(Br)c1)C2=O please.
output: 16.5 µM

input: Answer with the recorded EC50 of Cc1cc(C)nc(S/C=C/C(=O)c2ccc(F)cc2)n1 only.
output: 2.67 µM

input: Look up and report measured EC50 for this entry: CC(NC(=O)Cn1ncc(Cl)c(Cl)c1=O)C12CC3CC(CC(C3)C1)C2 (stereo not drawn)
output: 41.6 µM

input: Tell me measured EC50 for CN(C)c1nc(=NCc2ccco2)ss1 please.
output: 0.1 µM

input: Respond only with EC50 recorded for CCSc1nc2ccccc2n1C(=O)/C=C/c1ccc(OC)c(OC)c1
output: 1.13 µM

input: Give the reported value of EC50 for this record: CCN1C/C(=C/c2ccc(OC)c(O)c2)C(=O)/C(=C/c2ccc(OC)c(O)c2)C1
output: 888 µM

input: Note down EC50 recorded for CCOC(=O)/C=C/C(=O)Nc1ccccc1-c1ccccc1NC(=O)/C=C/C(=O)OCC
output: 1320 µM

input: Kindly indicate its recorded EC50. Item: COc1cccc(OC)c1C(=O)NNC(=O)c1cccc(COc2ccc3c(c2)CCC3)c1
output: 562 µM (inactive)

input: Provide only the value of recorded EC50 for COC(=O)CSC1=C(C#N)C(=O)NC(c2ccccc2)S1 (stereo not drawn)
output: 4.1 µM

input: Please give the documented EC50 of CCOC(=O)N1C/C(=C\c2ccccc2)C(=O)/C(=C/c2ccccc2)C1
output: 1.94 µM

input: Return EC50 (reported value) for this molecule: C=CCSc1nc2ccccc2n1C(=O)/C=C/c1cc(OC)c(OC)c(OC)c1
output: 1.16 µM

input: For the molecule CC(C)c1ccc2c(c1)C1(NN=C(c3ccccc3)S1)C(=O)N2 (stereo not drawn) , give its measured EC50 value.
output: 1.42 µM

input: Return reported EC50. Input molecule: COc1cc(/C=C2\COC/C(=C\c3cc(OC)c(OC)c(OC)c3)C2=O)cc(OC)c1OC
output: 648 µM

input: Report EC50 for CCSc1nc2ccccc2n1C(=O)/C=C\c1ccc(OC)c(OC)c1
output: 1630 µM

input: Give the reported EC50 for this molecule. C=C1C(=O)O[C@@H]2C[C@@H](C)[C@@H]3C=CC(=O)[C@@]3(C)[C@@H](O)[C@H]12
output: 1.11 µM

input: Answer with the recorded EC50 of O=C(/C=C/c1cccc([N+](=O)[O-])c1)n1cnc2ccccc21 only.
output: 1.72 µM

input: Identify EC50 associated with the molecule O=C(/C=C/c1cccnc1)/C=C/c1cccnc1
output: 0.58 µM
